test: Cytotoxicity against human HepG2 cells assessed as reduction in cell viability pretreated for 1 hr followed by DMEM addition measured after 24 hrs by alamar blue assay; format: cell-based; details: read-out: ED50
Square brackets hold non-standard residues; d marks the D form. Peptide text beside a SMILES is read from it. Gly(N-2-aminoethyl) = NCCNCC(=O)O; Nphe = O=C(O)CNCc1ccccc1
Recorded Metric: CC50 at 24 h

If you can, please state the reported CC50 at 24 h value of CCCCCNCC(=O)N(CC(=O)N(CC(=O)N(CCCCN)CC(=O)N(CC(=O)N(CC(=O)N(CCCCN)CC(=O)N(CC(=O)N(CC(=O)N(CCCCN)CC(=O)N(CC(=O)N(CC(N)=O)[C@@H](C)c1ccccc1)[C@@H](C)c1ccccc1)C(C)c1ccccc1)[C@@H](C)c1ccccc1)[C@@H](C)c1ccccc1)[C@@H](C)c1ccccc1)C(C)c1ccccc1)[C@@H](C)c1ccccc1 (single isomer, unassigned) . 15 µM

Moving on to NCCNCC(=O)N(CC(=O)N(CC(=O)N(CCN)CC(=O)N(CC(=O)N(CC(N)=O)Cc1ccccc1)Cc1ccccc1)Cc1ccccc1)Cc1ccccc1 (H-[Gly(N-2-aminoethyl)][Nphe][Nphe][Gly(N-2-aminoethyl)][Nphe][Nphe]-NH2) > 100 µM

Repeat with `N=C(N)NCCCCNCC(=O)N(CC(=O)N(CC(=O)N(CCCCNC(=N)N)CC(=O)N(CC(=O)N(CC(=O)N(CCCCNC(=N)N)CC(=O)N(CC(=O)N(CC(=O)N(CCCCNC(=N)N)CC(=O)N(CC(=O)N(CC(N)=O)Cc1cccc(F)c1)Cc1cccc(F)c1)Cc1cccc(F)c1)Cc1cccc(F)c1)Cc1cccc(F)c1)Cc1cccc(F)c1)Cc1cccc(F)c1)Cc1cccc(F)c1` 21 µM

====

test: Selectivity index, ratio of ED50 for human HepG2 cells to MIC for Staphylococcus epidermidis clinical isolate; assay type: toxicity; details: read-out: Selectivity Index
Square brackets hold non-standard residues; d marks the D form. Peptide text beside a SMILES is read from it. Gly(N-(CH2)6NH2) = NCCCCCCNCC(=O)O; Gly(N-2-aminoethyl) = NCCNCC(=O)O; Nspe = C[C@H](NCC(=O)O)c1ccccc1; NhArg = N=C(N)NCCCCNCC(=O)O; Nphe = O=C(O)CNCc1ccccc1
Lab note - cut at 20 for selectivity ratio: 1 (yes) if strictly below, 0 (no) if not.

Compound | Discrete Label
CCCCCNCC(=O)N(CC(=O)N(CC(=O)N(CCCCC)CC(=O)N(CC(=O)N(CC(=O)N(CCCCN)CC(=O)N(CC(=O)N(CC(=O)N(CCCCN)CC(=O)N(CC(=O)N(CC(N)=O)[C@@H](C)c1ccccc1)[C@@H](C)c1ccccc1)C(C)c1ccccc1)[C@@H](C)c1ccccc1)C(C)c1ccccc1)[C@@H](C)c1ccccc1)C(C)c1ccccc1)[C@@H](C)c1ccccc1 (single isomer, unassigned) | 1 (yes)
C[C@@H](c1ccccc1)N(CC(N)=O)C(=O)CN(C(=O)CN(CCCCCCN)C(=O)CN(C(=O)CN(C(=O)CN(CCCCCCN)C(=O)CN(C(=O)CN(C(=O)CN(CCCCCCN)C(=O)CN(C(=O)CN(C(=O)CNCCCCCCN)[C@@H](C)c1ccccc1)[C@@H](C)c1ccccc1)[C@@H](C)c1ccccc1)[C@@H](C)c1ccccc1)[C@@H](C)c1ccccc1)[C@@H](C)c1ccccc1)[C@@H](C)c1ccccc1 (H-[Gly(N-(CH2)6NH2)][Nspe][Nspe][Gly(N-(CH2)6NH2)][Nspe][Nspe][Gly(N-(CH2)6NH2)][Nspe][Nspe][Gly(N-(CH2)6NH2)][Nspe][Nspe]-NH2) | 0 (no)
C[C@@H](c1ccccc1)N(CC(N)=O)C(=O)CN(C(=O)CN(CCCCCCN)C(=O)CN(C(=O)CN(C(=O)CN(CCCCCCN)C(=O)CN(C(=O)CN(C(=O)CNCCCCCCN)[C@@H](C)c1ccccc1)[C@@H](C)c1ccccc1)[C@@H](C)c1ccccc1)[C@@H](C)c1ccccc1)[C@@H](C)c1ccccc1 (H-[Gly(N-(CH2)6NH2)][Nspe][Nspe][Gly(N-(CH2)6NH2)][Nspe][Nspe][Gly(N-(CH2)6NH2)][Nspe][Nspe]-NH2) | 0 (no)
NCCNCC(=O)N(CC(=O)N(CC(=O)N(CCN)CC(=O)N(CC(=O)N(CC(=O)N(CCN)CC(=O)N(CC(=O)N(CC(=O)N(CCN)CC(=O)N(CC(=O)N(CC(N)=O)Cc1ccccc1)Cc1ccccc1)Cc1ccccc1)Cc1ccccc1)Cc1ccccc1)Cc1ccccc1)Cc1ccccc1)Cc1ccccc1 (H-[Gly(N-2-aminoethyl)][Nphe][Nphe][Gly(N-2-aminoethyl)][Nphe][Nphe][Gly(N-2-aminoethyl)][Nphe][Nphe][Gly(N-2-aminoethyl)][Nphe][Nphe]-NH2) | 1 (yes)
C[C@@H](c1ccccc1)N(CC(N)=O)C(=O)CN(C(=O)CN(CCCCNC(=N)N)C(=O)CN(C(=O)CN(C(=O)CN(CCCCNC(=N)N)C(=O)CN(C(=O)CN(C(=O)CN(CCCCNC(=N)N)C(=O)CN(C(=O)CN(C(=O)CNCCCCNC(=N)N)[C@@H](C)c1ccccc1)[C@@H](C)c1ccccc1)[C@@H](C)c1ccccc1)[C@@H](C)c1ccccc1)[C@@H](C)c1ccccc1)[C@@H](C)c1ccccc1)[C@@H](C)c1ccccc1 (H-[NhArg][Nspe][Nspe][NhArg][Nspe][Nspe][NhArg][Nspe][Nspe][NhArg][Nspe][Nspe]-NH2) | 1 (yes)

Lab note: selectivity ratio threshold 20. Does this compound come in strictly under it? NCCNCC(=O)N(CC(=O)N(CC(=O)N(CCN)CC(=O)N(CC(=O)N(CC(=O)N(CCN)CC(=O)N(CC(=O)N(CC(N)=O)Cc1ccccc1)Cc1ccccc1)Cc1ccccc1)Cc1ccccc1)Cc1ccccc1)Cc1ccccc1 (H-[Gly(N-2-aminoethyl)][Nphe][Nphe][Gly(N-2-aminoethyl)][Nphe][Nphe][Gly(N-2-aminoethyl)][Nphe][Nphe]-NH2) 1 (yes)

Proceed to CC(c1ccccc1)N(CC(=O)N(CCCCN)CC(=O)N(CC(=O)N(CC(=O)N(CCCCN)CC(=O)N(CC(=O)N(CC(N)=O)[C@@H](C)c1ccccc1)[C@@H](C)c1ccccc1)Cc1ccc(F)cc1)Cc1ccc(F)cc1)C(=O)CN(C(=O)CN(CCCCN)C(=O)CN(Cc1ccc(F)cc1)C(=O)CN(Cc1ccc(F)cc1)C(=O)CNCCCCN)[C@@H](C)c1ccccc1 (single isomer, unassigned) 0 (no)

// next record CC(c1ccccc1)N(CC(=O)N(CCCCN)CC(=O)N(CC(=O)N(CC(=O)N(CCCCN)CC(=O)N(CC(=O)N(CC(N)=O)[C@@H](C)c1ccccc1)[C@@H](C)c1ccccc1)Cc1ccc(F)cc1)Cc1ccc(F)cc1)C(=O)CN(C(=O)CNCCCCN)[C@@H](C)c1ccccc1 (single isomer, unassigned) 0 (no)

Then `C[C@@H](c1ccccc1)N(CC(N)=O)C(=O)CN(Cc1ccc(F)cc1)C(=O)CN(CCCCN)C(=O)CN(C(=O)CN(Cc1ccc(F)cc1)C(=O)CN(CCCCN)C(=O)CN(C(=O)CN(Cc1ccc(F)cc1)C(=O)CN(CCCCN)C(=O)CN(C(=O)CN(Cc1ccc(F)cc1)C(=O)CNCCCCN)[C@@H](C)c1ccccc1)[C@@H](C)c1ccccc1)[C@@H](C)c1ccccc1` ? 1 (yes)

Quick one: C[C@@H](c1ccccc1)N(CC(N)=O)C(=O)CN(C(=O)CN(CCN)C(=O)CN(C(=O)CN(C(=O)CN(CCN)C(=O)CN(C(=O)CN(C(=O)CN(CCN)C(=O)CN(C(=O)CN(C(=O)CNCCN)[C@@H](C)c1ccccc1)[C@@H](C)c1ccccc1)[C@@H](C)c1ccccc1)[C@@H](C)c1ccccc1)[C@@H](C)c1ccccc1)[C@@H](C)c1ccccc1)[C@@H](C)c1ccccc1 (H-[Gly(N-2-aminoethyl)][Nspe][Nspe][Gly(N-2-aminoethyl)][Nspe][Nspe][Gly(N-2-aminoethyl)][Nspe][Nspe][Gly(N-2-aminoethyl)][Nspe][Nspe]-NH2) 0 (no)
